# Target Or System: mouse melanocortin 5 receptor (mouse, UniProt P41149 1-325)
# Sequence (P41149 whole entry): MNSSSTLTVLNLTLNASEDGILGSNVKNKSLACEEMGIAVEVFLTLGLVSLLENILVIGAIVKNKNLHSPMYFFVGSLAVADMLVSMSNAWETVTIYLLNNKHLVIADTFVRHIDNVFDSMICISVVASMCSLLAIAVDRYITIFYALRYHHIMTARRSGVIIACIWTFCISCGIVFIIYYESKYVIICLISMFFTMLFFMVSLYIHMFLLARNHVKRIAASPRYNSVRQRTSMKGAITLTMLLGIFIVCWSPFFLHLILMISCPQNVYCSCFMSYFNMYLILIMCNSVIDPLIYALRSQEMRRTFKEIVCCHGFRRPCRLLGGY
# Assay Name: radioligand binding
Square brackets hold non-standard residues; d marks the D form. Dap = NC[C@H](N)C(=O)O
Readout Kind: IC50 (µM)

Recorded results for 2 binders are shown here.
[[record]]
binder = "cyclo(PRFF[Dap]VF[dP]) [c[Pro-Arg-Phe-Phe-Dap-Val-Phe-DPro]]"
measured_number = 2.7

[[record]]
binder = "cyclo(PRYF[Dap]AF[dP]) [c[Pro-Arg-Tyr-Phe-Dap-Ala-Phe-DPro]]"
measured_number = 36


a. cyclo(PHFF[Dap]AF[dP]) [c[Pro-His-Phe-Phe-Dap-Ala-Phe-DPro]]
b. PRFFXAFP (Dap (diaminopropionic acid) at position 5 (X in the letters); DPro at position 8; head-to-tail cyclised (macrocycle)) [c[Pro-Arg-Phe-Phe-Dap-Ala-Phe-DPro]]
c. cyclo(PRFFNVF[dP]) [c[Pro-Arg-Phe-Phe-Asn-Val-Phe-DPro]]
// query Ordering criterion: IC50; begin with the maximum. Output spec: a listing of the labels in the requested order.
// result c, a, b
(c: 29 µM, a: 12 µM, b: 1.7 µM)

Values were extracted from paper PMC7250496.
